Where do these numbers come from? They come from ChEMBL document CHEMBL4414552.

Target of assay: Leukocyte surface antigen CD47 (Homo sapiens, UniProt Q08722)
Sequence (Q08722 whole entry): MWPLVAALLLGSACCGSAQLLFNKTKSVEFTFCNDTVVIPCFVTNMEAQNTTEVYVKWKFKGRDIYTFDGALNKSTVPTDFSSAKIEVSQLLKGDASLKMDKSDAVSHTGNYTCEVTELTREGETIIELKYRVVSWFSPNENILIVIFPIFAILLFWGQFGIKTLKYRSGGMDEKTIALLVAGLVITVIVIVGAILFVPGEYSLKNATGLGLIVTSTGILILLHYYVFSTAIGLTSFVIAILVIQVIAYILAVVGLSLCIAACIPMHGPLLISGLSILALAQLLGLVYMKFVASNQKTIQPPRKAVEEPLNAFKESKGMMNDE
Observed property: Kd (µM)
# value in µM; strip the unit string

- CC(C)[C@H](NC(=O)[C@H](Cc1ccc(O)cc1)NC(=O)[C@H](Cc1ccccc1)NC(=O)[C@H](CCCNC(=N)N)N(C)C(=O)[C@H](N)CCCCN)C(=O)N[C@H](C(=O)N[C@@H](Cc1ccc(O)cc1)C(=O)N[C@@H](Cc1c[nH]c2ccccc12)C(=O)N[C@@H](CCCCN)C(=O)N[C@H](CCCCN)C(=O)O)C(C)C: 13
- CSCC[C@H](NC(=O)[C@@H](NC(=O)[C@@H](NC(=O)[C@H](Cc1ccc(O)cc1)NC(=O)[C@H](Cc1ccccc1)NC(=O)[C@H](CCCNC(=N)N)N(C)C(=O)[C@H](N)CCCCN)C(C)C)C(C)C)C(=O)N[C@@H](Cc1c[nH]c2ccccc12)C(=O)N[C@@H](CCCCN)C(=O)N[C@H](CCCCN)C(=O)O: 21
- CCCC[C@H](NC(=O)[C@@H](NC(=O)[C@@H](NC(=O)[C@H](Cc1ccc(O)cc1)NC(=O)[C@H](Cc1ccccc1)NC(=O)[C@H](CCCNC(=N)N)N(C)C(C)=O)C(C)C)C(C)C)C(=O)N[C@@H](Cc1c[nH]c2ccccc12)C(=O)N[C@@H](CCCCN)C(N)=O: 20

Exam item: Supply measured Kd of CC(C)[C@H](NC(=O)[C@H](Cc1ccc(O)cc1)NC(=O)[C@H](Cc1ccccc1)NC(=O)[C@H](CCCNC(=N)N)N(C)C(=O)[C@H](N)CCCCN)C(=O)N[C@H](C(=O)N[C@H](C(=O)N[C@@H](Cc1c[nH]c2ccccc12)C(=O)N[C@@H](CCCCN)C(=O)N[C@H](CCCCN)C(=O)O)C(C)C)C(C)C in your reply.
Marked response: 9.5

====

Target of assay: Leukocyte surface antigen CD47 (Homo sapiens, UniProt Q08722)
Protocol summary: Binding affinity to CD47 in biotinylated human MEC1 cell membranes by biolayer interferometry
Observed property: Kd (µM)
# value in µM; strip the unit string

Exam item: Supply measured Kd of CSCC[C@H](NC(=O)[C@@H](NC(=O)[C@H](C(C)C)N(C)C(=O)[C@H](Cc1ccc(O)cc1)NC(=O)[C@H](Cc1ccccc1)NC(=O)[C@H](CCCNC(=N)N)NC(=O)[C@H](N)CCCCN)C(C)C)C(=O)N[C@@H](Cc1c[nH]c2ccccc12)C(=O)N[C@@H](CCCCN)C(=O)N[C@H](CCCCN)C(=O)O in your reply.
Marked response: 36

====

Target of assay: Leukocyte surface antigen CD47 (Homo sapiens)
Square brackets hold non-standard residues; d marks the D form. Peptide text beside a SMILES is read from it. NMeR = CN[C@@H](CCCNC(=N)N)C(=O)O; Nle = CCCC[C@H](N)C(=O)O
Observed property: Kd (µM)
# value in µM; strip the unit string

A selection of reference data follows.
• CC[C@H](C)[C@H](NC(=O)[C@@H](NC(=O)[C@@H](NC(=O)[C@H](Cc1ccc(O)cc1)NC(=O)[C@H](Cc1ccccc1)NC(=O)[C@H](CCCNC(=N)N)N(C)C(=O)[C@H](N)CCCCN)C(C)C)C(C)C)C(=O)N[C@@H](Cc1c[nH]c2ccccc12)C(=O)N[C@@H](CCCCN)C(=O)N[C@H](CCCCN)C(=O)O = 17
• CC(C)C[C@H](NC(=O)[C@@H](NC(=O)[C@@H](NC(=O)[C@H](Cc1ccc(O)cc1)NC(=O)[C@H](Cc1ccccc1)NC(=O)[C@H](CCCNC(=N)N)N(C)C(=O)[C@H](N)CCCCN)C(C)C)C(C)C)C(=O)N[C@@H](Cc1c[nH]c2ccccc12)C(=O)N[C@@H](CCCCN)C(=O)N[C@H](CCCCN)C(=O)O (H-[dK][NMeR]FYVVLWK[dK]-OH) = 15

Next up:
Exam item: Retrieve Kd on Leukocyte surface antigen CD47 (Homo sapiens); query CCCC[C@H](NC(=O)[C@@H](NC(=O)[C@@H](NC(=O)[C@H](Cc1ccc(O)cc1)NC(=O)[C@H](Cc1ccccc1)NC(=O)[C@H](CCCNC(=N)N)N(C)C(=O)[C@H](N)CCCCN)C(C)C)C(C)C)C(=O)N[C@@H](Cc1c[nH]c2ccccc12)C(=O)N[C@@H](CCCCN)C(=O)N[C@H](CCCCN)C(=O)O (H-[dK][NMeR]FYVV[Nle]WK[dK]-OH)
Marked response: 8.6

====

pKd values recorded for UniProt:Q08722
Note: pKd values are expressed as the negative base-10 logarithm of concentration in M.

* CSCC[C@H](NC(=O)[C@@H](NC(=O)[C@@H](NC(=O)[C@H](Cc1ccc(O)cc1)NC(=O)[C@H](Cc1ccccc1)NC(=O)[C@H](CCCNC(=N)N)N(C)C(=O)[C@H](N)CCCCN)C(C)C)C(C)C)C(=O)N[C@@H](Cc1c[nH]c2ccccc12)C(=O)N(C)[C@@H](CCCCN)C(=O)N[C@H](CCCCN)C(=O)O | 4.42

Exam item: Retrieve pKd on UniProt:Q08722; query CSCC[C@H](NC(=O)[C@@H](NC(=O)[C@@H](NC(=O)[C@H](Cc1ccc(O)cc1)NC(=O)[C@H](Cc1ccccc1)NC(=O)[C@H](CCCNC(=N)N)NC(=O)[C@H](N)CCCCN)C(C)C)C(C)C)C(=O)N[C@@H](Cc1c[nH]c2ccccc12)C(=O)N(C)[C@@H](CCCCN)C(=O)N[C@H](CCCCN)C(=O)O
Marked response: 4.32
